Data origin, for the record: patent US20240336591A1

- target.or.test.system: Human PDE10A2 (Homo sapiens (Human))
- protocol: Cell based human PDE10A activity assay - cAMP HTRF assay in HEK 293 rhPDE10A2 cell line
- particulars: Forskolin 10 μM; read-out: cAMP HTRF Assay in HEK 293 rhPDE10A2 cell line (pIC50) (converted)
attribute.measured: IC50 (nM)
The reply should be a number in nM, with the unit left off.

Worked cases, IC50 given:
* Cc1cccc2nc(COc3ccc(-c4nn(C)cc4-c4ccncc4)cc3)c(C(=O)N=S(C)(C)=O)cc12 | 1.48
* Cn1ncc(-c2ccncc2)c1-c1ccc(OCc2nc3ccccc3cc2C(=O)O)cc1 | 0.117
* CS(=O)(=O)n1cc(-c2ccncc2)c(-c2ccc(OCc3ccc4ccccc4n3)cc2)n1 | 64.6

Next compound, IC50 to be filled in.
Prompt: With Human PDE10A2 (Homo sapiens (Human)) as the test system, provide measured IC50 for this compound: CS(=N)(=O)c1cc(COc2ccc(-c3n[nH]cc3-c3ccncc3)cc2)nc2ccccc12 (centres unmarked)
Completion: 8.91

###

- protocol: Determination of CNS penetration in vivo (brain to plasma partitioning, Kpuu)
- Design: species or system Male Sprague Dawley Rats
- particulars: male, Sprague-Dawley, brain / plasma (unbound); rat, IV, 1 mg/kg, 10-30 min post dose
Catalogue of Kp uu values
Answer as a number with no unit attached.

Worked cases, Kp uu given:
* CN(C(=O)c1cc2ccccc2nc1COc1ccc(-c2nn(C)cc2-c2ccncc2)cc1)S(C)(=O)=O | 0.06
* Cn1cc(-c2ccncc2)c(-c2ccc(OCc3nc4cccnc4cc3C(=O)N=S(C)(C)=O)cc2)n1 | 0.05

Prompt: Consider the compound Cn1cc(-c2ccncc2)c(-c2ccc(OCc3cc(C(=O)N=S(C)(C)=O)c4ccccc4n3)cc2)n1 and give its recorded Kp uu.
Completion: 0.02

###

- target.or.test.system: Human PDE10A2 (Homo sapiens (Human), UniProt Q9Y233)
- Sequence (Q9Y233 267-1055): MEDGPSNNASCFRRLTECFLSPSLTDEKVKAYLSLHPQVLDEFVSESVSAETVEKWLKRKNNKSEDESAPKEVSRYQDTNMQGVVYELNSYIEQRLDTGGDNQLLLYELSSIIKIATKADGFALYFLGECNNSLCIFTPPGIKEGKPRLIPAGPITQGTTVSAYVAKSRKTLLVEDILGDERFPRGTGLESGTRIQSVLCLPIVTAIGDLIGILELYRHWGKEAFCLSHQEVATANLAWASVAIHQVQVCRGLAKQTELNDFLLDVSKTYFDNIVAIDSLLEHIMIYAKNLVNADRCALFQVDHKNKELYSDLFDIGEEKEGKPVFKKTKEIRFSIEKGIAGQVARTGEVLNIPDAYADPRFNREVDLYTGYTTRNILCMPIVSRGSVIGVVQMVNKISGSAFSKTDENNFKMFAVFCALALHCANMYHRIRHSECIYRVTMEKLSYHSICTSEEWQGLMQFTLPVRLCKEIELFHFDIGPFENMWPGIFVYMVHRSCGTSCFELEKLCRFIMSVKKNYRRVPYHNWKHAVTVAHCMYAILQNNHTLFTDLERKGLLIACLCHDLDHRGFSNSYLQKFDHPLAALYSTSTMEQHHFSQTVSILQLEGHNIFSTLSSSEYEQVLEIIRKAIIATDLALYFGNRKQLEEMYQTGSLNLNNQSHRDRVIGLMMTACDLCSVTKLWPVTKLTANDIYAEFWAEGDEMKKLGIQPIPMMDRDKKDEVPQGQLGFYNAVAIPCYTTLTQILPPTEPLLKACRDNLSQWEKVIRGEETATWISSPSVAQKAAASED
- protocol: Biochemical human PDE10A activity assay - PDE10A2 Phosphate Sensor Assay
- particulars: cGMP 3 μM substrate, PDE10A2 0.25 nM
- Method: Biochemical Human PDE10A Activity Assay—PDE10A2 Phosphate Sensor Assay Semi Log compound dilutions starting at a final concentration of 50 μM were dispensed into a black 384 well plate alongside, DMSO and an Inhibited control using the Echo Acoustic dispenser. […] Data was analysed using a 4-parameter fit.
attribute.measured: PDE10A2 Phosphate Sensor Enzyme Assay (pIC50)
Answer as a number with no unit attached.

Worked cases, PDE10A2 Phosphate Sensor Enzyme Assay (pIC50) given:
• Cn1cc(-c2ccncc2)c(-c2ccc(OCc3nc(N4CCS(=O)(=O)CC4)c4ccccc4n3)cc2)n1 = 9.65
• CS(=O)(=O)n1cc(-c2ccncc2)c(-c2ccc(OCc3ccc4ccccc4n3)cc2)n1 = 8.36

Prompt: Consider the compound Cn1cc(-c2ccncc2)c(-c2ccc(OCc3cc(C(=O)N=S(C)(C)=O)c4cc(F)ccc4n3)cc2)n1 and give its recorded PDE10A2 Phosphate Sensor Enzyme Assay (pIC50).
Completion: 9.41

Prompt: Consider the compound Cn1cc(-c2ccncc2)c(-c2ccc(OCc3nc4ccccc4nc3N3CC(N)C3)cc2)n1 and give its recorded PDE10A2 Phosphate Sensor Enzyme Assay (pIC50).
Completion: 9.45

Prompt: Consider the compound O=C(O)c1cc2ccccc2nc1COc1ccc(-c2n[nH]cc2-c2ccncc2)cc1 and give its recorded PDE10A2 Phosphate Sensor Enzyme Assay (pIC50).
Completion: 10

Prompt: Consider the compound Cn1cc(-c2ccncc2)c(-c2ccc(OCc3cc(C(=O)O)c4ccccc4n3)cc2)n1 and give its recorded PDE10A2 Phosphate Sensor Enzyme Assay (pIC50).
Completion: 10.1

Prompt: Consider the compound CS(C)(=O)=NC(=O)c1cc2ccccc2nc1COc1ccc(-c2n[nH]cc2-c2ccncc2)cc1 and give its recorded PDE10A2 Phosphate Sensor Enzyme Assay (pIC50).
Completion: 10

Prompt: Consider the compound Cn1cc(-c2ccncc2)c(-c2ccc(OCc3nc(N4CC(N)C4)c4ccccc4n3)cc2)n1 and give its recorded PDE10A2 Phosphate Sensor Enzyme Assay (pIC50).
Completion: 9.46
